Hi there, I'd appreciate the recorded Toxicity for every entry that follows.
tested on: Schistosoma mansoni; format: functional; parameters: scale not given here

A selection of reference data follows.
CC1CC(C)CN(C(=O)c2ccc(Cl)cc2Cl)C1 (stereo not given) ... 0
CCC1(C)CC(CCNCc2ccccc2O)(c2ccc(C)cc2)CCO1 (stereo not given) ... 2
CCOC(=O)c1cn(CC)c2cc(N(C)CCc3ccc(OC)c(OC)c3)c(F)cc2c1=O ... 0
COc1ccc(-c2nc3cc(Cc4ccc5[nH]c(-c6ccc(OC)cc6)nc5c4)ccc3[nH]2)cc1 ... 3
CCOC(=O)C1CCN(C(=O)CN2C(=O)c3ccccc3C2c2c[nH]c3ccccc23)CC1 (stereo not given) ... 0
Cc1ccc(-c2cc3c(SCC(=O)Nc4cc(C(F)(F)F)ccc4Cl)nccn3n2)cc1 ... 0

Hi team, please reply with Toxicity for each item in this list.
1. N#Cc1nc(Cc2cccc3ccccc23)oc1N1CCN(C(c2ccccc2)c2ccccc2)CC1
2. COc1ccccc1N1CCN(C(CNS(=O)(=O)c2ccc(Cl)cc2)c2cccnc2)CC1 (stereo not given)
3. COc1ccc(-n2ccnc2SCC(=O)Nc2cc(C)ccc2C)c(OC)c1

0
0
1

Could you tell me which Toxicity is on file for OC(CNC1CCCCC1)Cn1c2ccc(I)cc2c2cc(I)ccc21 (stereo not given) ?
4
